Experiment: log P (octanol/PBS)
Type: physicochemical
Conditions: Table 2
Experimental Readout: logP
Lab note: jot the number down without any unit.

# annotated cases, reported logP shown
{"Smiles Notation": "CN(C)c1ccc(-c2csc(-c3nc(-c4ccc(O)nc4)cs3)n2)cc1", "logP": 1.9}
{"Smiles Notation": "FCCOCCOc1ccc(-c2csc(-c3nc(-c4ccc5c(c4)OCO5)cs3)n2)cc1", "logP": 2.5}
{"Smiles Notation": "Oc1cc(-c2csc(-c3nc(-c4ccc5c(c4)OCO5)cs3)n2)ccc1OCCF", "logP": 2.1}
{"Smiles Notation": "Oc1ccc(-c2csc(-c3nc(-c4ccc(OCCOCCOCCF)cc4)cs3)n2)cc1", "logP": 1.8}
{"Smiles Notation": "Nc1ccc(-c2csc(-c3nc(-c4ccc(NCCOCCOCCF)cc4)cs3)n2)cc1", "logP": 2}
{"Smiles Notation": "Fc1ccc(-c2cc(-c3csc(-c4nc(-c5ccc6c(c5)OCO6)cs4)n3)on2)cc1", "logP": 3.2}
{"Smiles Notation": "Oc1ccc(-c2csc(-c3nc(-c4ccc(OCCOCCF)cc4)cs3)n2)cc1", "logP": 1.9}
{"Smiles Notation": "CN(C)c1ccc(-c2csc(-c3nc(-c4ccc(F)nc4)cs3)n2)cc1", "logP": 2.1}

Quick check: logP of Oc1cc(-c2csc(-c3nc(-c4ccc5c(c4)OCO5)cs3)n2)ccc1OCCOCCF ?
1.9

Name the recorded logP for FCCOc1ccc(-c2csc(-c3nc(-c4ccc5c(c4)OCO5)cs3)n2)cc1 .
2.6

Any idea what logP was measured for FCCOCCOCCOc1ccc(-c2csc(-c3nc(-c4ccc5c(c4)OCO5)cs3)n2)cc1 ?
2.3

What does the record list as logP for CN(C)c1ccc(-c2csc(-c3nc(-c4ccc(NCCOCCOCCF)cc4)cs3)n2)cc1 ?
2.4

Please look up its logP: CN(C)c1ccc(-c2csc(-c3nc(-c4ccc(OCF)cc4)cs3)n2)cc1
3.2

Requested read-out: logP. Entry: Oc1ccc(-c2csc(-c3nc(-c4ccc(OCCOCCF)c(O)c4)cs3)n2)cc1O
1.1

---

Target: human tau-441 recombinant aggregate (fibrils) (Homo sapiens, UniProt P10636)
Sequence (P10636 1-441 isoform P10636-8): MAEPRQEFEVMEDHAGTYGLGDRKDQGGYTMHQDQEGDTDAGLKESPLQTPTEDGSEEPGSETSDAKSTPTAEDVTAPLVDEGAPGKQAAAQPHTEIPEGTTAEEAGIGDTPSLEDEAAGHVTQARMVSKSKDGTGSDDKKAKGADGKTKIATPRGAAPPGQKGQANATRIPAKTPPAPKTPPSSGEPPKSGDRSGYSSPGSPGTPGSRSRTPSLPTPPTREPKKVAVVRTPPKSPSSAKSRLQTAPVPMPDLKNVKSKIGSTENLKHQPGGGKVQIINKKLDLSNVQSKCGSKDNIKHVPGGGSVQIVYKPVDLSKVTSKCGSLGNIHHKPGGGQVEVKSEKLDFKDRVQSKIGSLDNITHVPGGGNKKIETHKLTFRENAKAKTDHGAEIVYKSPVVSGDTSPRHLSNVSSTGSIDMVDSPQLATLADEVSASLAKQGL
Test: Saturation and competition binding assay on tau aggregates (fibrils)
Conditions: Table 3; read-out: Affinity Ki, τ
pKi: −log10 of the molar value.
Experimental Readout: pKi

{"Smiles Notation": "COc1sc(-c2csc(-c3nc(-c4ccc5c(c4)OCO5)cs3)n2)cc1F", "pKi": 8.00}
{"Smiles Notation": "CN(C)c1ccc(-c2csc(-c3nc(-c4ccc(O)nc4)cs3)n2)cc1", "pKi": "< 6.00"}
{"Smiles Notation": "Fc1ccc(-c2cc(-c3csc(-c4nc(-c5ccc6c(c5)OCO6)cs4)n3)on2)cc1", "pKi": "< 6.00"}

Give the measured pKi of CN(C)c1ccc(-c2csc(-c3nc(-c4ccc(F)nc4)cs3)n2)cc1 .
< 6.00

---

Biological target: Aβ1-40 (Homo sapiens, UniProt P05067)
Sequence (P05067 672-711): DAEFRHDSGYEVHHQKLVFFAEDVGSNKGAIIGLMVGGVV
Experiment: Competition binding assay vs [^3H]PiB on synthetic amyloid peptide aggregates (Aβ1-40)
Details: 100 nM; Table 3
Recorded measurements of inhibition at 0.1 µM, one per entry
Write the number in % without appending the unit.

The following compounds have reported results that may help.
{"Compound": "CN(C)c1ccc(-c2csc(-c3nc(-c4ccc(F)nc4)cs3)n2)cc1 [Compound 21]", "inhibition at 0.1 µM [%]": 89}
{"Compound": "CN(C)c1ccc(-c2csc(-c3nc(-c4ccc(O)nc4)cs3)n2)cc1 [Compound 20]", "inhibition at 0.1 µM [%]": 90}
{"Compound": "Fc1ccc(-c2cc(-c3csc(-c4nc(-c5ccc6c(c5)OCO6)cs4)n3)on2)cc1 [Compound 22]", "inhibition at 0.1 µM [%]": 20}

The record that follows has no inhibition at 0.1 µM shown yet.
Any idea what its inhibition at 0.1 µM is? The compound is COc1sc(-c2csc(-c3nc(-c4ccc5c(c4)OCO5)cs3)n2)cc1F [Compound 23]
87
